- ASSAYED SYSTEM: panel of 442 kinases (Homo sapiens)
- Construct: purchased KINOMEscan
- Type: binding
- RUN PARAMETERS: Compound Concentration 10 µM
PROPERTY NAME: KINOMEscan: EPHA8

CHEM SMILES	RECORDED NUMBER
COc1cc(C(=O)N2CCC(N3CCN(C)CC3)CC2)ccc1Nc1ncc2c(n1)N(C)c1ccccc1C(=O)N2C	80
CCOc1cc(C(=O)N2CCC(N3CCN(C)CC3)CC2)ccc1Nc1ncc2c(n1)N(C1CCCC1)c1ccccc1C(=O)N2C	100
COc1cc(C(=O)N2CCC(N3CCN(C)CC3)CC2)ccc1Nc1ncc2c(n1)N(C1CCCC1)c1ccccc1C(=O)N2C	97
COc1cc(C(=O)N2CCC(N3CCN(C)CC3)CC2)ccc1Nc1ncc2c(n1)N1CCc3cccc(c31)C(=O)N2C	72

====

- ASSAYED SYSTEM: panel of 442 kinases (Homo sapiens, UniProt Q15418)
- Construct: purchased KINOMEscan
- Sequence (Q15418 whole entry): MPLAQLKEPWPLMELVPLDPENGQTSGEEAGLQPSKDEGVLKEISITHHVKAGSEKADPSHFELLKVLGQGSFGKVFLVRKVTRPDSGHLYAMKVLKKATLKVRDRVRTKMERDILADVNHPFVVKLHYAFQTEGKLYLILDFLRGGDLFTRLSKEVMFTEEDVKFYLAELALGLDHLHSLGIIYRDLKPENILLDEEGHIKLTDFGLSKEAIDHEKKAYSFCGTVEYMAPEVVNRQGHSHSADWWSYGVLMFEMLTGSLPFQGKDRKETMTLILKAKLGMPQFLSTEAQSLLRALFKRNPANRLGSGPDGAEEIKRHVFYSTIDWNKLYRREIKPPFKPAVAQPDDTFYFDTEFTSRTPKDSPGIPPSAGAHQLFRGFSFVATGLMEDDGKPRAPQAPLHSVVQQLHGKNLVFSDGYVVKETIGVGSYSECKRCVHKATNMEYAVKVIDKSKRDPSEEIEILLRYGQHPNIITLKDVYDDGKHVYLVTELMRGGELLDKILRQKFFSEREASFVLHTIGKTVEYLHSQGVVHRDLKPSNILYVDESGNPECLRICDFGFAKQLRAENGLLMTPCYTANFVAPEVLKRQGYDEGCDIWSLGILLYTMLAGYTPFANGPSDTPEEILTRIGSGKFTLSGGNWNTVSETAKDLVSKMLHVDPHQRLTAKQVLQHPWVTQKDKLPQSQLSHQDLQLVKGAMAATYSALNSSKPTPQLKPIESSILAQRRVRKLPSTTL
- Type: binding
- RUN PARAMETERS: Compound Concentration 10 µM
- From the text: We assessed the selectivity of members of this scaffold using the KINOMEscan methodology across a near comprehensive panel of 442 kinases [[18,27]].
PROPERTY NAME: KINOMEscan: RSK1(Kin.Dom.2-C-terminal)

MOLECULE	ASSAYED SYSTEM	RECORDED NUMBER
CCOc1cc(C(=O)N2CCC(N3CCN(C)CC3)CC2)ccc1Nc1ncc2c(n1)N(C1CCCC1)c1ccccc1C(=O)N2C [Compound 26]	panel of 442 kinases (Homo sapiens, UniProt Q15418)	88
COc1cc(C(=O)N2CCC(N3CCN(C)CC3)CC2)ccc1Nc1ncc2c(n1)N(C1CCCC1)c1ccccc1C(=O)N2C [Compound 25]	panel of 442 kinases (Homo sapiens, UniProt Q15418)	63
COc1cc(C(=O)N2CCC(N3CCN(C)CC3)CC2)ccc1Nc1ncc2c(n1)N1CCc3cccc(c31)C(=O)N2C [Compound 24]	panel of 442 kinases (Homo sapiens, UniProt Q15418)	22
COc1cc(C(=O)N2CCC(N3CCN(C)CC3)CC2)ccc1Nc1ncc2c(n1)N(C)c1ccccc1C(=O)N2C [15 (LRRK2-IN-1)]	panel of 442 kinases (Homo sapiens, UniProt Q15418)	10

====

- ASSAYED SYSTEM: panel of 442 kinases (Homo sapiens)
- Construct: purchased KINOMEscan
- Assay type: binding
- RUN PARAMETERS: kinase TAK1; compound concentration 10 µM
Catalogue of % Ctrl, TAK1 readings, one per entry.
PROPERTY NAME: % Ctrl, TAK1

COMPOUND	RESULT
COc1cc(C(=O)N2CCC(N3CCN(C)CC3)CC2)ccc1Nc1ncc2c(n1)N(C)c1ccccc1C(=O)N2C [15 (LRRK2-IN-1)]	98 % Ctrl
COc1cc(C(=O)N2CCC(N3CCN(C)CC3)CC2)ccc1Nc1ncc2c(n1)N1CCc3cccc(c31)C(=O)N2C [Compound 24]	100 % Ctrl
CCOc1cc(C(=O)N2CCC(N3CCN(C)CC3)CC2)ccc1Nc1ncc2c(n1)N(C1CCCC1)c1ccccc1C(=O)N2C [Compound 26]	100 % Ctrl
COc1cc(C(=O)N2CCC(N3CCN(C)CC3)CC2)ccc1Nc1ncc2c(n1)N(C1CCCC1)c1ccccc1C(=O)N2C [Compound 25]	100 % Ctrl

This collection of values is drawn from paper PMC3914206.
